Test system: Escherichia coli
assayProtocol: Antibacterial activity against Escherichia coli ATCC 25922 assessed as reduction in bacterial cell growth incubated for 18 hrs by two fold serial microdilution method
Format: functional
Square brackets hold non-standard residues; d marks the D form. Peptide text beside a SMILES is read from it. βAla = NCCC(=O)O
So I've got a bunch of compounds here, and I need their MIC values.
Give bare numbers, in µM.

INSERT INTO measurements (compound, recordedmeasurement) VALUES
  ('CC[C@H](C)[C@H](NC(=O)[C@H](CCCNC(=N)N)NC(=O)[C@H](CCCCN)NC(=O)[C@H](CC(C)C)NC(=O)[C@H](CC(C)C)NC(=O)CCN)C(=O)N[C@@H](CCCCN)C(=O)NCCC(=O)N[C@@H](CC(C)C)C(=O)N[C@@H](CC(C)C)C(N)=O (H-[βAla]LLKRIK[βAla]LL-NH2)', 64);

Prompt: Value lookup for MIC; key = CC[C@H](C)[C@H](NC(=O)[C@H](CCCNC(=N)N)NC(=O)CCNC(=O)[C@H](CC(C)C)NC(=O)[C@H](CC(C)C)NC(=O)CN)C(=O)N[C@@H](CCCCN)C(=O)N[C@H](C(=O)N[C@@H](CC(C)C)C(=O)N[C@@H](CC(C)C)C(N)=O)[C@@H](C)O (H-GLL[βAla]RIKTLL-NH2)
Response: 128
